# ASSAY_METHOD_TEXT: RP, Waters CORTECS T3, 100 × 2.1 mm, 2.7 µm, 0.15 mL/min, estimated dead time 1.5 min; A: water + 0.1% formic acid, pH 3; B: methanol + 0.1% formic acid, pH 3; gradient (min/%B) 0/5 5/5 25/95 25.1/100 35/100 35.1/5 45/5
# ASSAY_SETUP: stereoisomer not certain
QUANTITY_MEASURED: log10 LC retention time (log10 of the value in min)
Answers are given as log10 of LC retention time in min.

[[record]]
molecule = "Nc1nc2nccnc2c(=O)[nH]1"
assay_value = 0.54


Hi, could you look up log10 LC retention time for each item in my list?
1. CCCCCCSCC(NC(=O)CCC(N)C(=O)O)C(=O)NCC(=O)O (stereo not given)
2. CC(CCC(=O)O)C1CCC2C3C(O)CC4CC(O)CCC4(C)C3CC(O)C12C (stereo not given) [CHOLATE]
3. CCOC(OCC)C(O)COP(=O)(O)O (stereo not given) [GLYCERALDEHYDE 3-PHOSPHATE DIETHYL ACETAL]
4. CSCCC(NC=O)C(=O)O [FORMYL-L-METHIONYL PEPTIDE]
5. CC(=O)NCCc1c[nH]c2ccc(O)cc12
6. O=C(O)CCCCCCCCCCCO [OMEGA-HYDROXYDODECANOIC ACID]

Response given:
1.27
1.39
0.87
0.96
1.07
1.35

====

# ASSAY_METHOD_TEXT: RP, Waters CORTECS T3, 100 × 2.1 mm, 2.7 µm, 0.3 mL/min, estimated dead time 0.73 min; A: water + 0.1% formic acid, pH 3; B: methanol + 0.1% formic acid, pH 3; gradient (min/%B) 0/0 1/0 6/5 30/100 35/100 35.1/0 40/0
# ASSAY_SETUP: stereoisomer not certain
QUANTITY_MEASURED: log10(LC retention time) (log10 of the value in min)
Recall that a logarithmic scale is used here: each number is log10 of LC retention time in min.

Below: 4 molecules and their reported log10(LC retention time).
[[record]]
molecule = "Nc1nc2ncc(CNc3ccc(C(=O)NC(CCC(=O)O)C(=O)O)cc3)nc2c(=O)[nH]1 (stereo not given)"
quantity_measured = "log10(LC retention time)"
assay_value = 1.09

[[record]]
molecule = "O=C(O)CCCCCCC(=O)O"
quantity_measured = "log10(LC retention time)"
assay_value = 1.16

[[record]]
molecule = "Nc1ccccc1S(=O)(=O)O"
quantity_measured = "log10(LC retention time)"
assay_value = 0.33

[[record]]
molecule = "CC(CCC(=O)O)C1CCC2C3C(O)CC4CC(O)CCC4(C)C3CC(O)C12C (stereo not given) [CHOLATE]"
quantity_measured = "log10(LC retention time)"
assay_value = 1.40


Query molecule follows.
Challenge: Give the measured log10(LC retention time) of "O=c1[nH]c(=O)c2[nH]cnc2[nH]1" .
Response given: 0.38

====

I'd be grateful if you could share measured LC retention time for these entries.
# ASSAY_METHOD_TEXT: RP, Waters CORTECS T3, 100 × 2.1 mm, 2.7 µm, 0.15 mL/min, estimated dead time 1.5 min; A: water + 0.1% formic acid, pH 3; B: methanol + 0.1% formic acid, pH 3; gradient (min/%B) 0/5 5/5 25/95 25.1/100 35/100 35.1/5 45/5
# ASSAY_SETUP: stereoisomer not certain
Where a name gives a salt, the structure may show the parent alone.
Numbers only, in min.

For every item in the list below, what is its measured LC retention time?
1. O=S(=O)(O)Oc1c[nH]c2ccccc12 [INDOXYL SULFATE]
2. Nc1nc2c(ncn2C2OC(CO)C(O)C2O)c(=O)[nH]1 (stereo not drawn)
3. Nc1ccccc1S(=O)(=O)O
4. O=c1[nH]cnc2c1ncn2C1OC(CO)C(O)C1O (stereo not drawn)
5. Nc1ccn(C2OC(COP(=O)(O)OP(=O)(O)O)C(O)C2O)c(=O)n1 (stereo not drawn) [CYTIDINE 5'-DIPHOSPHATE]

Response given:
[9.5, 4.79, 3.09, 4.68, 1.98]

I have 6 compounds here; please give me LC retention time for each one.
1. O=c1ccn(C2OC(CO)C(O)C2O)c(=O)[nH]1 (stereo not drawn)
2. CC(O)(CC(=O)O)C(=O)O (stereo not drawn) [CITRAMALATE]
3. CC(=O)N[C@@H](Cc1ccccc1)C(=O)O
4. Cc1cc2nc3c(=O)[nH]c(=O)nc-3n(CC(O)C(O)C(O)CO)c2cc1C (stereo not drawn)
5. N[C@@H](Cc1cc(I)c(Oc2ccc(O)cc2)c(I)c1)C(=O)O
6. O=C(O)CCCCCCCC(=O)O

Response given:
1. 1.83
2. 3.28
3. 14.9
4. 14.1
5. 18.1
6. 17.6

Respectfully, I request LC retention time for each entry included below.
1. N[C@@H](Cc1ccc(O)c(O)c1)C(=O)O [3,4-DIHYDROXY-L-PHENYLALANINE]
2. CC(C)(CO)C(O)C(=O)NCCC(=O)O (stereo not drawn)

Response given:
[1.78, 9.08]

Provide LC retention time values for the following items, in order.
1. CC1NC(=O)NC1CCCCCC(=O)O (stereo not drawn)
2. CC(=O)N[C@@H](CC(C)C)C(=O)O
3. O=C(O)CCCCCCC(=O)O
4. O=c1[nH]c(=O)c2[nH]c(=O)[nH]c2[nH]1 [URATE]
5. c1ncc2[nH]cnc2n1

Response given:
1: 15.1; 2: 14.3; 3: 15.6; 4: 1.78; 5: 3.26

====

# ASSAY_METHOD_TEXT: RP, Waters CORTECS T3, 100 × 2.1 mm, 2.7 µm, 0.25 mL/min, estimated dead time 0.88 min; A: water + 0.1% formic acid, pH 3; B: methanol + 0.1% formic acid, pH 3; gradient (min/%B) 0/0 1/0 6/5 30/100 35/100 35.1/0 40/0
# ASSAY_SETUP: stereoisomer not certain
QUANTITY_MEASURED: LC retention time
Please answer using a numeric value trailed by its unit.

[[record]]
compound = "O=C(O)c1cc(=O)c2ccccc2[nH]1 [4-HYDROXY-2-QUINOLINECARBOXYLIC ACID]"
assay_value = "11.4 min"


State the recorded LC retention time for every item in the following list.
1. CCCCCCCCCCCCCCCC(O)C(N)CO (stereo not drawn)
2. C=Cc1c(C)c2cc3[nH]c(cc4nc(cc5nc(cc1[nH]2)C(C)=C5CCC(=O)O)C(CCC(=O)O)=C4C)c(C)c3C=C
3. O=C([O-])Cc1c[nH]c2ccccc12 [INDOLE-3-ACETATE]

Response given:
26.6 min
30.1 min
15.5 min

# map each compound to its LC retention time
1. N[C@@H](Cc1cc(I)c(O)c(I)c1)C(=O)O
2. CC(=O)OCC(=O)C1CCC2C3CCC4=CC(=O)CCC4(C)C3CCC12C (stereo not drawn) [DEOXYCORTICOSTERONE ACETATE]
3. O=c1[nH]c(=O)c2[nH]cnc2[nH]1
4. CCCCCCCCCC(=O)OCC(COP(=O)([O-])OCC[N+](C)(C)C)OC(=O)CCCCCCCCC (stereo not drawn)
5. NC(=O)C1CCCN1C(=O)C(Cc1cnc[nH]1)NC(=O)C1CCC(=O)N1 (stereo not drawn)

Response given:
1: 13.3 min; 2: 24.4 min; 3: 2.63 min; 4: 29.2 min; 5: 1.09 min

I need LC retention time for every entry listed below, if you could help.
1. Cc1cc2nc3[nH]c(=O)[nH]c(=O)c3nc2cc1C
2. NC(=O)c1cccnc1 [NICOTINAMIDE]
3. C[N+](C)(C)CCOP(=O)(O)OP(=O)([O-])OCC1OC(n2ccc(N)nc2=O)C(O)C1O (stereo not drawn)
4. O=c1cc[nH]c(=O)[nH]1
5. CC(C)(CO)C(O)C(=O)NCCC(=O)O (stereo not drawn)
6. CN=C(N)N
7. CCC(NC(=O)CCC(N)C(=O)O)C(=O)NCC(=O)O (stereo not drawn)
8. O=C(O)c1ccc(=O)[nH]c1 [6-HYDROXYNICOTINATE]

Response given:
17.5 min
1.9 min
1.09 min
1.11 min
8.69 min
1.06 min
1.13 min
4.17 min

Challenge: Given the compound "COc1ccc2[nH]cc(CCNC(C)=O)c2c1" , what is its reported LC retention time?
Response given: 15.4 min

====

What LC retention time was measured for each of the following?
# ASSAY_METHOD_TEXT: RP, Waters CORTECS T3, 100 × 2.1 mm, 2.7 µm, 0.3 mL/min, estimated dead time 0.73 min; A: water + 0.1% formic acid, pH 3; B: methanol + 0.1% formic acid, pH 3; gradient (min/%B) 0/5 5/5 25/100 30/100 30.1/5 35/5
# ASSAY_SETUP: stereoisomer not certain
One number for each entry, in min.

[[record]]
molecule = "CC1NC(=O)NC1CCCCCC(=O)O (stereo unspecified)"
quantity_measured = "LC retention time"
assay_value = 12.4

[[record]]
molecule = "CC(C)=CCNc1ncnc2nc[nH]c12"
quantity_measured = "LC retention time"
assay_value = 11.8

[[record]]
molecule = "CCCCCCSCC(NC(=O)CCC(N)C(=O)O)C(=O)NCC(=O)O (stereo unspecified)"
quantity_measured = "LC retention time"
assay_value = 15.6

[[record]]
molecule = "N[C@@H](Cc1ccccc1)C(=O)O"
quantity_measured = "LC retention time"
assay_value = 11.8

[[record]]
molecule = "CC12CCC(=O)C=C1CCC1C2C(=O)CC2(C)C1CCC2(O)C(=O)CO (stereo unspecified)"
quantity_measured = "LC retention time"
assay_value = 16.3


Give measured LC retention time for every item shown.
1. O=C(O)c1ccc(=O)[nH]c1 [6-HYDROXYNICOTINATE]
2. O=CCc1c[nH]c2ccccc12
3. N[C@@H](Cc1cc(I)c(Oc2ccc(O)cc2)c(I)c1)C(=O)O
4. CCCCCCCCCC(=O)OCC(COP(=O)([O-])OCC[N+](C)(C)C)OC(=O)CCCCCCCCC (stereo unspecified)

Response given:
1. 2.27
2. 9.2
3. 15.5
4. 24.3

Provide reported LC retention time for each item, in the same order as listed.
1. Nc1cccc2ccccc12
2. Cn1cnc2c(ncn2C2OC(CO)C(O)C2O)c1=N (stereo unspecified)

Response given:
1: 10.2; 2: 5.02
